- tgt: ERRβ (Homo sapiens, UniProt O95718)
- measurement_notes: ThermoFluor thermal shift assay, ERRβ
- Type: binding
- condition: read-out: Estimated dissociation constant, ERRβ
measurement_name: Kd

Ask: Which Kd is reported for this molecule? CCc1cc(O)ccc1Cl [4chloro-3ethyl-phenol]
Reply: 18 µM

----------
- tgt: ERβ (Homo sapiens, UniProt Q92731)
- Sequence (Q92731 whole entry, species assumed): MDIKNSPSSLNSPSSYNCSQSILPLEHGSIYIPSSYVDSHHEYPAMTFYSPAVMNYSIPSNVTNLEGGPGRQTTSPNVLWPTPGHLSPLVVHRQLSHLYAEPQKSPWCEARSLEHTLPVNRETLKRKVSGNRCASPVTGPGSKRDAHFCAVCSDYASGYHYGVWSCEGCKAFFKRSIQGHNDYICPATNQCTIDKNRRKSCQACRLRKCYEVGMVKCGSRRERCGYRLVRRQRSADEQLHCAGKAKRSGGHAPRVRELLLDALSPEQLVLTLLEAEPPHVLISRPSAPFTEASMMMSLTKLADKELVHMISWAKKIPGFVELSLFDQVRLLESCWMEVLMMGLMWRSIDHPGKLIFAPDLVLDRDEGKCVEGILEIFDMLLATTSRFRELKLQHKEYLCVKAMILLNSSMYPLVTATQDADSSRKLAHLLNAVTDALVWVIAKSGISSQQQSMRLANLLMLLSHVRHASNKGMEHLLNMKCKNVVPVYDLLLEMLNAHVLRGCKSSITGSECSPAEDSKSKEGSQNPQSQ
- measurement_notes: ThermoFluor thermal shift assay, ERβ
- Format: binding
- condition: calculated at reference temperature 25 °C from ΔTm of Table II; ΔHu 122 kcal/mol; read-out: Estimated dissociation constant, ERγ
measurement_name: Kd
Report the figure along with its unit, number first.

Ask: Which Kd is reported for this compound? CCN(CC)CCOc1ccc(C(=C(Cl)c2ccccc2)c2ccccc2)cc1
Reply: 52.1 nM

Ask: Here is the next compound: COc1cc2c(cc1O)CC[C@@H]1[C@@H]2CC[C@]2(C)[C@@H](O)CC[C@@H]12
Reply: 2310 nM

Ask: Here is the next compound: C[C@]12CC[C@H]3[C@@H](CCC4=C[C@H](O)CC[C@@H]43)[C@@H]1CC[C@@H]2O
Reply: 157 nM

Ask: Here is the next compound: CCCc1c(-c2ccc(O)cc2)nn(-c2ccc(O)cc2)c1-c1ccc(O)cc1
Reply: 58.3 nM

----------
- tgt: ERβ (Homo sapiens)
- measurement_notes: ThermoFluor thermal shift assay, ERβ
- Format: binding
measurement_name: pKd
pKd (log units): -log10 of the concentration in mol/L.

Ask: Which pKd is reported for this compound? Cc1cc(O)ccc1Cl [ClCH3Ph, 4-chloro, 3-methyl phenol]
Reply: 5.52

----------
Give ΔTm at 100 µM for every item shown.
- tgt: ERRβ (Homo sapiens, UniProt O95718)
- measurement_notes: ThermoFluor thermal shift assay, ERRβ
- Assay type: binding
- condition: 100 μM test compound; 0.1 mg/mL protein, 25 mM HEPES pH 8.0; Tm free protein 47.5 °C; read-out: ΔTm, thermal stabilization of ERRβ
Dear colleague, please return just the value in °C, with no unit written.

Ask: Under ERRβ (Homo sapiens, UniProt O95718): ΔTm at 100 µM value of Cc1cc(O)ccc1Cl [ClCH3Ph, 4-chloro, 3-methyl phenol] ?
Reply: 0.2

Ask: Here is the next molecule: O=c1c(-c2ccc(O)cc2)coc2cc(O)ccc12 [Daidzein]
Reply: 0.3

Ask: Here is the next molecule: CCc1cc(O)ccc1Cl [4chloro-3ethyl-phenol]
Reply: 0.4

Ask: Here is the next molecule: C[C@]12CC[C@H]3[C@@H](CCC4=C[C@H](O)CC[C@@H]43)[C@@H]1CC[C@@H]2O [4-estrene-3-α-17-β-diol]
Reply: -0.1

Ask: Here is the next molecule: CC(C)(c1ccc(O)cc1)c1ccc(O)cc1 [BPA, bisphenol A]
Reply: -0.1

Ask: Here is the next molecule: C[C@]12CC[C@@H]3c4ccc(O)cc4C[C@@H](CCCCCCCCC[S+]([O-])CCCC(F)(F)C(F)(F)F)[C@H]3[C@@H]1CC[C@@H]2O (stereo partly drawn) [ICI-182780]
Reply: 0

----------
- tgt: ERβ (Homo sapiens)
- measurement_notes: ThermoFluor thermal shift assay, ERβ
- Format: binding
- condition: 100 μM test compound; 0.1 mg/mL protein, 25 mM HEPES pH 8.0; Tm free protein 41.1 °C; read-out: ΔTm, thermal stabilization of ERβ
measurement_name: ΔTm at 100 µM (°C)
Dear colleague, please return just the value in °C, with no unit written.

Ask: Which ΔTm at 100 µM is reported for this compound? C[C@]12CC[C@H]3[C@@H](CCC4=C[C@H](O)CC[C@@H]43)[C@@H]1CC[C@@H]2O [4-estrene-3-α-17-β-diol]
Reply: 7.7

Ask: Here is the next compound: C[C@]12CC[C@@H]3c4ccc(O)cc4C[C@@H](CCCCCCCCC[S+]([O-])CCCC(F)(F)C(F)(F)F)[C@H]3[C@@H]1CC[C@@H]2O (some centres unmarked) [ICI-182780]
Reply: 16.7

Ask: Here is the next compound: CC(C)(c1ccc(O)cc1)c1ccc(O)cc1 [BPA, bisphenol A]
Reply: 7.4

Ask: Here is the next compound: CCN(CC)CCOc1ccc(C(=C(Cl)c2ccccc2)c2ccccc2)cc1 [clomiphene]
Reply: 9.7

Ask: Here is the next compound: O=C(c1ccc(OCCN2CCCCC2)cc1)c1c(-c2ccc(O)cc2)sc2cc(O)ccc12 [raloxifene]
Reply: 11.9

----------
- tgt: ligand binding domain of ERRγ (Homo sapiens, UniProt P62508)
- Construct: 6His; made in house; host or cells: E. coli BL21(DE3)
- Sequence (P62508 229-458): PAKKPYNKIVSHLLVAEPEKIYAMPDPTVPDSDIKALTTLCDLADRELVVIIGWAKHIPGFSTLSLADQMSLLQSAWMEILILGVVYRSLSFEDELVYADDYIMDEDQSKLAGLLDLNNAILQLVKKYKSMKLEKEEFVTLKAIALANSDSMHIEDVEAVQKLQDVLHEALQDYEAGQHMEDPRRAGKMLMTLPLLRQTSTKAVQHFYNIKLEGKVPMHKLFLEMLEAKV
- measurement_notes: ThermoFluor thermal shift assay, ERRγ ligand binding domain
- condition: 100 μM test compound; 0.1 mg/mL protein, 25 mM HEPES pH 8.0; Tm free protein 49.6 °C
measurement_name: ΔTm, thermal stabilization of ERRγ (°C)
Dear colleague, please return just the value in °C, with no unit written.

Ask: Which ΔTm, thermal stabilization of ERRγ is reported for this compound? C[C@]12CC[C@@H]3c4ccc(O)cc4CC[C@H]3[C@@H]1CC[C@H]2O [17-α-estradiol]
Reply: 1.3

Ask: Here is the next compound: Oc1ccc(/C=C/c2cc(O)cc(O)c2)cc1 [resvesterol]
Reply: 0.4

Ask: Here is the next compound: N#CC(Cc1ccc(O)cc1)c1ccc(O)cc1 (stereo not shown) [DPN]
Reply: 0.3

Ask: Here is the next compound: C[C@]12CC[C@@H]3c4ccc(O)cc4CC[C@H]3[C@@H]1CC[C@@H]2O [17-β-estradiol]
Reply: 0.6

Ask: Here is the next compound: Cc1cc(O)ccc1Cl [ClCH3Ph, 4-chloro, 3-methyl phenol]
Reply: 3.9

Ask: Here is the next compound: COc1cc2c(cc1O)CC[C@@H]1[C@@H]2CC[C@]2(C)[C@@H](O)CC[C@@H]12 [2-methoxy-estradiol]
Reply: 0.0

Ask: Here is the next compound: CCCc1c(-c2ccc(O)cc2)nn(-c2ccc(O)cc2)c1-c1ccc(O)cc1 [PPT]
Reply: −1.8

----------
Give Kd for every item shown.
- tgt: ERα (Homo sapiens, UniProt P03372)
- Sequence (P03372 1-595): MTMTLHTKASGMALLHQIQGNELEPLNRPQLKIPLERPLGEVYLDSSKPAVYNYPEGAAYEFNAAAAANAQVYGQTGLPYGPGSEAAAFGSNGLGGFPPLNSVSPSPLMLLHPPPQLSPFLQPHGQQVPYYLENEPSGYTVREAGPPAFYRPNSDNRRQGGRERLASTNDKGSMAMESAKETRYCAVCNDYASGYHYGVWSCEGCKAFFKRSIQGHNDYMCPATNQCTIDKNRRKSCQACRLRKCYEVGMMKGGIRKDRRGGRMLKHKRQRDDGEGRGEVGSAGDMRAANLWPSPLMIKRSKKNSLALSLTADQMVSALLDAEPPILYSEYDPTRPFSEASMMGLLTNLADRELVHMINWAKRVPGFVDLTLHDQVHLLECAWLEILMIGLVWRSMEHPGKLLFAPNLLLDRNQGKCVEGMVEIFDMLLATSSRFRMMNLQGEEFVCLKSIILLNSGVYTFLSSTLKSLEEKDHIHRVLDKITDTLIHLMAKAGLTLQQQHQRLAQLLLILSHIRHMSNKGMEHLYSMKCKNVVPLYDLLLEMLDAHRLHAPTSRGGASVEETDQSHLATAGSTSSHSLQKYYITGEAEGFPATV
- measurement_notes: ThermoFluor thermal shift assay, ERα
- Assay type: binding
- condition: calculated at reference temperature 25 °C from ΔTm of Table II; ΔHu 112 kcal/mol; read-out: Estimated dissociation constant, ERα
Dear colleague, please return just the value in nM, with no unit written.

Ask: Under ERα (Homo sapiens, UniProt P03372): Kd value of COc1cc2c(cc1O)CC[C@@H]1[C@@H]2CC[C@]2(C)[C@@H](O)CC[C@@H]12 [2-methoxy-estradiol] ?
Reply: 2660

Ask: Here is the next compound: CCCc1c(-c2ccc(O)cc2)nn(-c2ccc(O)cc2)c1-c1ccc(O)cc1 [PPT]
Reply: 38.7

Ask: Here is the next compound: Cc1cc(O)ccc1Cl [ClCH3Ph, 4-chloro, 3-methyl phenol]
Reply: 37300

----------
- tgt: ERRβ (Homo sapiens)
- Sequence (O95718 208-432 limits assumed): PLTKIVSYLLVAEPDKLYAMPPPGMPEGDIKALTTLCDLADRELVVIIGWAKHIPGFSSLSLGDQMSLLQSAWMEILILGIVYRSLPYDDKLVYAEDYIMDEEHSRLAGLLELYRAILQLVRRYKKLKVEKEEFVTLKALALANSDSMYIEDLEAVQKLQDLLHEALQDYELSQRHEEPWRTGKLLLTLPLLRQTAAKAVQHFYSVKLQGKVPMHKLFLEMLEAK
- measurement_notes: ThermoFluor thermal shift assay, ERRβ
- Type: binding
- condition: 100 μM test compound; 0.1 mg/mL protein, 25 mM HEPES pH 8.0; Tm free protein 47.5 °C
measurement_name: ΔTm, thermal stabilization of ERRβ (°C)
Dear colleague, please return just the value in °C, with no unit written.

Ask: Which ΔTm, thermal stabilization of ERRβ is reported for this molecule? N#CC(Cc1ccc(O)cc1)c1ccc(O)cc1 (stereo not drawn) [DPN]
Reply: 0.2

Ask: Here is the next molecule: C[C@]12CC[C@@H]3c4ccc(O)cc4CC[C@H]3[C@@H]1CC[C@@H]2O [17-β-estradiol]
Reply: −0.1

Ask: Here is the next molecule: COc1cc2c(cc1O)CC[C@@H]1[C@@H]2CC[C@]2(C)[C@@H](O)CC[C@@H]12 [2-methoxy-estradiol]
Reply: −0.1

Ask: Here is the next molecule: Oc1ccc(/C=C/c2cc(O)cc(O)c2)cc1 [resvesterol]
Reply: 0.2

Ask: Here is the next molecule: C[C@]12CC[C@@H]3c4ccc(O)cc4CC[C@H]3[C@@H]1CC[C@H]2O [17-α-estradiol]
Reply: 0.0

Ask: Here is the next molecule: CCCc1c(-c2ccc(O)cc2)nn(-c2ccc(O)cc2)c1-c1ccc(O)cc1 [PPT]
Reply: −3.5
